tgt: Adrenergic receptor alpha-1 (Homo sapiens, UniProt P35348+P25100+P35368)
procedure_summary: Binding affinity towards Alpha-1 adrenergic receptor in human cortex membranes
Format: cell membranes
observation_type: Ki (µM)

{"compound": "c1cnc(N2CCC(CNC[C@H]3COc4ccccc4O3)CC2)nc1", "value_modifier": "=", "readout_number": 0.018}
{"compound": "COc1ccccc1N1CCC(CNCC2COc3cccc(O)c3O2)CC1 (stereo unspecified)", "value_modifier": ">", "readout_number": 0.5}
{"compound": "COc1ccccc1NCC1CCN(CC2COc3ccccc3O2)CC1 (stereo unspecified)", "value_modifier": "=", "readout_number": 0.02}
{"compound": "COc1ccccc1N1CCC(CNCC2COc3ccc(Cl)cc3O2)CC1 (stereo unspecified)", "value_modifier": "=", "readout_number": 0.053}
{"compound": "c1cnc(N2CCC(CNC[C@@H]3COc4ccccc4O3)CC2)nc1", "value_modifier": "=", "readout_number": 0.117}
{"compound": "COc1cccc2c1OC(CNCC1CCN(c3ncccn3)CC1)CO2 (stereo unspecified)", "value_modifier": "=", "readout_number": 0.0023}
{"compound": "CC1(CNCC2CCN(c3ncccn3)CC2)COc2ccccc2O1 (stereo unspecified)", "value_modifier": "=", "readout_number": 0.132}
{"compound": "c1cnc(NCC2CCN(CC3COc4ccccc4O3)CC2)nc1 (stereo in doubt; 9)", "value_modifier": "=", "readout_number": 0.208}
{"compound": "COc1ccccc1N1CCC(CNC[C@@H]2COc3ccccc3O2)CC1", "value_modifier": "=", "readout_number": 0.074}
{"compound": "CC1Oc2ccccc2OC1CNCC1CCN(c2ncccn2)CC1 (stereo unspecified)", "value_modifier": ">", "readout_number": 0.5}
{"compound": "CN(CC1CCN(c2ncccn2)CC1)CC1COc2ccccc2O1 (stereo unspecified)", "value_modifier": "=", "readout_number": 0.348}
{"compound": "COc1ccccc1N1CCC(CNC[C@H]2COc3ccccc3O2)CC1", "value_modifier": "=", "readout_number": 0.023}
{"compound": "c1cnc(NCC2CCN(CC3COc4ccccc4O3)CC2)nc1 (stereo in doubt; 8)", "value_modifier": "=", "readout_number": 0.023}
{"compound": "c1ccc(N2CCC(CNCC3COc4ccccc4O3)CC2)cc1 (stereo unspecified)", "value_modifier": "=", "readout_number": 0.047}
{"compound": "Clc1ccccc1N1CCC(CNCC2COc3ccccc3O2)CC1 (stereo unspecified)", "value_modifier": "=", "readout_number": 0.094}
{"compound": "COc1cccc2c1OCC(CNCC1CCN(c3ncccn3)CC1)O2 (stereo unspecified)", "value_modifier": "=", "readout_number": 0.234}
